The values you see were collected from the supplement of paper PMC12042874.

I'd appreciate it if you could supply amyloid nucleation score values for the items below.
# method: amyloid nucleation score (Sup35N fusion, yeast selection) (log enrichment); library NNK1; higher = more nucleation; inactive = no reads after selection;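 also: zero at mode of non-aggregating sequences after 7 days selection at 30°C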
Lab note: record just the number, no unit beside it.

Any idea what its amyloid nucleation score is? The substance is FSVARFGWFLVSALLQGWDR -0.142

Any idea what its amyloid nucleation score is? The substance is VGIPRYGYEPVVHALVKPFE 0.959

Any idea what its amyloid nucleation score is? The substance is NAFQRV 0.6

Any idea what its amyloid nucleation score is? The substance is YDRMRTSIVRACERNLSDMH 0.786

Any idea what its amyloid nucleation score is? The substance is VSTSHCTSFVFNIYCKYDSR 8.54

Any idea what its amyloid nucleation score is? The substance is AESWCAGSKIIHSIGWSKDR 0.589

Any idea what its amyloid nucleation score is? The substance is LCKVPLNT 1.36

Any idea what its amyloid nucleation score is? The substance is MLSGSVAESKNLIQLCAFFM 6.7

Any idea what its amyloid nucleation score is? The substance is RFLSQNGNLIPGRRLPTGVR 0.54

Any idea what its amyloid nucleation score is? The substance is GPRHYKVFHSYSAFGGYSVC 1.01

Any idea what its amyloid nucleation score is? The substance is DWLFVGGGR 0.131

Any idea what its amyloid nucleation score is? The substance is MLEVKPLTCMVSPIYDFMPG -0.134

Any idea what its amyloid nucleation score is? The substance is SDLMWVLSCESLRITHRLVG 1.93

Any idea what its amyloid nucleation score is? The substance is TLRLSFCRYMAFWHCNRSMA -1.14

Any idea what its amyloid nucleation score is? The substance is DAVPSFTA -0.666

Any idea what its amyloid nucleation score is? The substance is LDASRNFVLLFS 0.784

Any idea what its amyloid nucleation score is? The substance is VLLQELLSYITIGCLELGFG 0.11

Any idea what its amyloid nucleation score is? The substance is SVGGVAGEF -0.087

Any idea what its amyloid nucleation score is? The substance is WLGSYIVFLIRMETYDWWIV -0.114

Any idea what its amyloid nucleation score is? The substance is WICQTGRFNELTHRCCVWFF 0.762

Any idea what its amyloid nucleation score is? The substance is QYGWCIAYSLELCSLSPNLI 0.326

Any idea what its amyloid nucleation score is? The substance is YWFDYINPLMRSFAHATAIS 0.74

Any idea what its amyloid nucleation score is? The substance is AANSPELVGFSGGPKGCSRG -0.137

Any idea what its amyloid nucleation score is? The substance is GTKWVTLQRGGRLGMGRRSD 0.562

Any idea what its amyloid nucleation score is? The substance is VCKWNSSIFLYNRPSVSAAV 0.123

Any idea what its amyloid nucleation score is? The substance is KSMMDMSYLMEYIGI -2.65

Any idea what its amyloid nucleation score is? The substance is VHDENYDRFQGFVLDMLQAH 0.641

---

# method: amyloid nucleation score (Sup35N fusion, yeast selection) (log enrichment); library NNK1; higher = more nucleation; inactive = no reads after selection
Everything with amyloid nucleation score lower than 0.4 is F; everything else, including exactly 0.4, is T.

Check this substance for amyloid nucleation score at or above 0.4: SSSSML F

Check this substance for amyloid nucleation score at or above 0.4: ILYGISSFESIADWAGLMSV T

Check this substance for amyloid nucleation score at or above 0.4: FCWHAFLSVTRFGRKIFFRF T

Check this substance for amyloid nucleation score at or above 0.4: HVYSSVLCQQD T

Check this substance for amyloid nucleation score at or above 0.4: VFFYSRT T

Check this substance for amyloid nucleation score at or above 0.4: SCGCYKSSLVNLL F

Check this substance for amyloid nucleation score at or above 0.4: ALRGMWNKVRSGGWCYRCTW F

Check this substance for amyloid nucleation score at or above 0.4: VWFIVLSRGQFHICFYGQG F

Check this substance for amyloid nucleation score at or above 0.4: FQGRLVFVDCDIRLVALKGS T

Check this substance for amyloid nucleation score at or above 0.4: VMCQCYSGGM T

Check this substance for amyloid nucleation score at or above 0.4: TYFFKLNP F

Check this substance for amyloid nucleation score at or above 0.4: FRLMVPGVCRRLANGLRMIW F

Check this substance for amyloid nucleation score at or above 0.4: ISATCL T

Check this substance for amyloid nucleation score at or above 0.4: SETQNRLS F

Check this substance for amyloid nucleation score at or above 0.4: CVTCFTLGSVRGKRTASACW F

Check this substance for amyloid nucleation score at or above 0.4: LRVYPGTYLTNRETRSRSCI T

Check this substance for amyloid nucleation score at or above 0.4: CVSEDDMLLDYDPVCKFVWW T

Check this substance for amyloid nucleation score at or above 0.4: IVQTHYN F

Check this substance for amyloid nucleation score at or above 0.4: SHPMDKRLWEKSYKAVGVCV F

Check this substance for amyloid nucleation score at or above 0.4: EFDTQSCQVDTVAVYIEPSL T

Check this substance for amyloid nucleation score at or above 0.4: SVSVNHSLPTLESDL F

Check this substance for amyloid nucleation score at or above 0.4: NVGRHV F

Check this substance for amyloid nucleation score at or above 0.4: QNMLFTIKRFSNQPDTVVFE F

Check this substance for amyloid nucleation score at or above 0.4: RLRTNVLSNRVGDPIMTSHV F

Check this substance for amyloid nucleation score at or above 0.4: SKTSEGLLLYVISYRNYYGP T

Check this substance for amyloid nucleation score at or above 0.4: DYLLFSVQGNYESWYNGCKF F

Check this substance for amyloid nucleation score at or above 0.4: PKSIGAFLTCHISRHVYYVI T

Check this substance for amyloid nucleation score at or above 0.4: FTAKSL F

Check this substance for amyloid nucleation score at or above 0.4: LSLRCCGFYLIVFFVIKFVS F

Check this substance for amyloid nucleation score at or above 0.4: SMTSWWVRGLLPVNGD T

Check this substance for amyloid nucleation score at or above 0.4: SCDFILLLAVT F

Check this substance for amyloid nucleation score at or above 0.4: CLWCDRTVASWAKVSASVRL F

Check this substance for amyloid nucleation score at or above 0.4: TITIVVRYVETRCGNIRDVE T

Check this substance for amyloid nucleation score at or above 0.4: QTGRFDIVSAS T

Check this substance for amyloid nucleation score at or above 0.4: SHRRGVKSTFLMRRLHYMWY F

Check this substance for amyloid nucleation score at or above 0.4: SLLLLMGALSHGMRLFKGSS F

Check this substance for amyloid nucleation score at or above 0.4: WPRNRHGVVILLVVIANSCS F

Check this substance for amyloid nucleation score at or above 0.4: KGYYDFRGVSLMVPVMFTMS F

Check this substance for amyloid nucleation score at or above 0.4: DNMFDTWLSGATV F

Check this substance for amyloid nucleation score at or above 0.4: QLFMHPRGIMKGLF T

Check this substance for amyloid nucleation score at or above 0.4: MVVLRFAKCDSCMTSMAKIL F

Check this substance for amyloid nucleation score at or above 0.4: PLCHWKA F

Check this substance for amyloid nucleation score at or above 0.4: RRWGFRAERVL F

Check this substance for amyloid nucleation score at or above 0.4: MGAIFCNGSK F

Check this substance for amyloid nucleation score at or above 0.4: VSFNGFLHLFWVFILLNSPW T

Check this substance for amyloid nucleation score at or above 0.4: SRKVKVWPVGLRRLVMFFVN T

Check this substance for amyloid nucleation score at or above 0.4: YHKTYIRYWAIVFDMMVRFG F

Check this substance for amyloid nucleation score at or above 0.4: KLVLYEVFSSKKKHIFLSHQ T

Check this substance for amyloid nucleation score at or above 0.4: SFCMMLVSLVFSSKKISHHA T

Check this substance for amyloid nucleation score at or above 0.4: LAYKNSLWGLLWKRF F

Check this substance for amyloid nucleation score at or above 0.4: CPVRSRIVVRCLYFSHMRST F

Check this substance for amyloid nucleation score at or above 0.4: SQVLGSLLFRSPRVWICVAG F

Check this substance for amyloid nucleation score at or above 0.4: NDYYCFHRAIFFDTGMYFSN F

Check this substance for amyloid nucleation score at or above 0.4: WCCHAGAMFAMAKSL T

Check this substance for amyloid nucleation score at or above 0.4: TEGFNTANA F

Check this substance for amyloid nucleation score at or above 0.4: RSYESCRAWLDEDGSVPIEC T

Check this substance for amyloid nucleation score at or above 0.4: FYSFWMGRTCMFIVTRVNSA F

Check this substance for amyloid nucleation score at or above 0.4: HWLGYVVLDLFDWPYCMIDL T

Check this substance for amyloid nucleation score at or above 0.4: NARWSGISFQC F

Check this substance for amyloid nucleation score at or above 0.4: NVMSSPCIRVGMLRMGVTKS T

Check this substance for amyloid nucleation score at or above 0.4: MVAEIYQAFWVC F

Check this substance for amyloid nucleation score at or above 0.4: FFINQRDLLS F

Check this substance for amyloid nucleation score at or above 0.4: GVKQEHVIPWQEVLGVITL T

Check this substance for amyloid nucleation score at or above 0.4: NYRQHHKTSRVLRLDVGTEP F

Check this substance for amyloid nucleation score at or above 0.4: LYRAAEYSLRILRLKATYPA F

Check this substance for amyloid nucleation score at or above 0.4: RCDGTQDKCWDKSLLFGERR T

Check this substance for amyloid nucleation score at or above 0.4: AGAVLLNVMLCARLQRSEYY T
